The measurements presented in this section are drawn from patent US20210277110A1.

target: T1, Extracellular domain of human PD1 (huPD1-ECD) (human, UniProt Q15116 25-169, biotinylated in the ligand inhibition assay (sites not given)); assay: SPR ProteOn, captured mAb, huPD1-ECD analyte
T1 construct: Expressed with a hexahistidine tag or as Fc fusion; also called biotinylated PD-1
T1 sequence (Q15116 25-169 limits assumed): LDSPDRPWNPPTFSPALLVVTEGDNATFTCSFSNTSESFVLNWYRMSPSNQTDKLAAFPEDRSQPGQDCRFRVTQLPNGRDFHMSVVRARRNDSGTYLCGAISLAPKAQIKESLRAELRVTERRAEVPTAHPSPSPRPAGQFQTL
observable: Kd (nM)
Answer format: numeric, nM implied, no suffix.

# annotated cases, reported Kd shown
| binder | Kd (nM) |
| --- | --- |
| PD1B160 (antibody, human IgG2, kappa, V domains shown, IgG2sigma/kappa; VH 42, VL 51; also called PD1H131/PD1L101) VH: QVQLVQSGAEVKKPGSSVKVSCKASGGTFSSYAISWVRQAPGQGLEWMGGIIPIFDTANYAQKFQGRVTITADESTSTAYMELSSLRSEDTAVYYCARPGLAAAYDTGNLDYWGQGTLVTVSS VL: EIVLTQSPATLSLSPGERATLSCRASQSVDSYLAWYQQKPGQAPRLLIKDASDRATGIPARFSGSGSGTDFTLTISSLEPEDFAVYYCQQRGNWPLTFGQGTKVEIKR | 6.87 |
| PD1B184 (antibody, human IgG2, kappa, V domains shown, IgG2sigma/kappa; VH 43, VL 50; also called PD1H3/PD1L128) VH: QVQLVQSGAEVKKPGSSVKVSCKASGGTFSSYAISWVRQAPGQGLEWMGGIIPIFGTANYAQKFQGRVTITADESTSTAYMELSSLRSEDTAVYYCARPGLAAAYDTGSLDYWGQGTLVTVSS VL: EIVLTQSPATLSLSPGERATLSCRASQSVRNYLAWYQQKPGQAPRLLIHDASNRATGIPARFSGSGSGTDFTLTISSLEPEDFAVYYCQQRNYWPLTFGQGTKVEIKR | 11.4 |

Please look at the following binder next.
Requested read-out: Kd. Entry: PD1B70 (antibody, V domains shown, Tested as IgG2sigma/kappa; also called PD1H107/PH9L3) VH: QVQLVQSGAEVKKPGSSVKVSCKASGGTFSSYAISWVRQAPGQGLEWMGGIIPIFGTANYAQKFQGRVTITADESTSTAYMELSSLRSEDTAVYYCARGYVRATGMLDYWGQGTLVTVSS VL: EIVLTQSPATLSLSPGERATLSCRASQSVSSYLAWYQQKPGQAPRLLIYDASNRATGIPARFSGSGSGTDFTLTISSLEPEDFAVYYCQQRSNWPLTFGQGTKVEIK
101
